Protocol summary: Solubility of AB-250 in water, ethanol and aqueous alcohol
Type: physicochemical
Study conditions: 50% ethanol, organic solvent or mixture; Michaelis buffer containing 50% of ethanol, pH 8; read-out: solubility in aqueous ethanol containing 50% of ethanol
Property: solubility
Quote the value and follow it with the unit of measurement.

Problem: For the molecule shown here, CCOc1ccccc1OCCNC(C)Cc1ccc(OC)c(S(N)(=O)=O)c1 (stereo not shown) , give the reported solubility.
Result: 51 mg/mL
